Target: bacterial NAD synthetase enzyme (Bacillus subtilis)
Assay: biochemical
Assay type: biochemical
Conditions: compound at 0.2 mM (Table 312A)
# cutoff 9% applies to % Inhibition; >= gives Satisfied, < gives Not satisfied

Below are worked cases with known answers.
In [3]: df
Out[3]:
                                   compound                                    system  class_assignment
0  CCCCc1ccc2[nH]c(CCCCC[n+]3cccc4ccccc43)cc2c1 [Compound 422]  bacterial NAD synthetase enzyme (Bacillus subtilis)         Satisfied
1  FC(F)(F)c1ccc2cc(CCCCCC[n+]3cccc4ccccc43)[nH]c2c1 [Compound 399]  bacterial NAD synthetase enzyme (Bacillus subtilis)         Satisfied
2  CN(C)c1ccc(C(=O)OCCCCc2cc3cc(C(=O)c4ccccc4)ccc3[nH]2)cc1 [Compound 645]  bacterial NAD synthetase enzyme (Bacillus subtilis)     Not satisfied
3  c1ccc(-c2ccc3[nH]c(CCCCCCC[n+]4cccc5ccccc54)cc3c2)cc1 [Compound 436]  bacterial NAD synthetase enzyme (Bacillus subtilis)         Satisfied
4  O=[N+]([O-])c1cc([N+](=O)[O-])c2[nH]c(CCCCCC[n+]3ccc4ccccc4c3)cc2c1 [Compound 525]  bacterial NAD synthetase enzyme (Bacillus subtilis)     Not satisfied

Check if % Inhibition >= 9% (inclusive). Item: O=C(c1ccccc1)c1ccc2[nH]c(CCCCCCC[n+]3cccc4ccccc43)cc2c1 [Compound 466]
Not satisfied

Check if % Inhibition >= 9% (inclusive). Item: O=C(c1ccccc1)c1ccc2[nH]c(CCCCCC[n+]3ccc4ccccc4c3)cc2c1 [Compound 573]
Satisfied

Check if % Inhibition >= 9% (inclusive). Item: Fc1cc(F)c2[nH]c(CCCCCC[n+]3ccc4ccccc4c3)cc2c1 [Compound 519]
Satisfied

Check if % Inhibition >= 9% (inclusive). Item: c1ccc(C(c2ccccc2)(c2ccccc2)c2ccc3[nH]c(CCCCCCCC[n+]4cccc5ccccc54)cc3c2)cc1 [Compound 449]
Not satisfied

====

Target: bacterial NAD synthetase enzyme (Bacillus subtilis, UniProt P08164)
Experiment: biochemical
Format: biochemical
Provide the recorded inhibition at 200 µM for the entries that follow.
One number for each entry, in %.

Example cases with answers are listed next.
In [3]: df
Out[3]:
                                   compound  experimental_readout  value
0  COC(=O)c1cc2cc(OCc3ccccc3)ccc2n1CCCCCCCCCOC(=O)Cc1ccc([N+](C)(C)C)cc1 [Compound 990]  inhibition at 200 µM   92.2
1  C[N+](C)(C)c1ccc(CC(=O)OCCCCCCCCCn2ccc3ccccc32)cc1 [Compound 982]  inhibition at 200 µM   93.7
2  CN(C)c1ccc(CC(=O)OCCCCCCCCOc2ccccc2C(N)=O)cc1 [Compound 1031]  inhibition at 200 µM     23

List inhibition at 200 µM for every entry below, keeping the order given.
1. COC(=O)c1cc2cc(OCc3ccccc3)ccc2n1CCCCCCCOC(=O)c1ccc(C[N+](C)(C)C)cc1 [Compound 1097]
2. C[n+]1cccc(C(=O)OCCCCCCCCCn2ccc3ccccc32)c1 [Compound 970]
3. C[N+](C)(C)c1ccc(CC(=O)OCCCCCCCCn2ccc3ccccc32)cc1 [Compound 981]
4. CC(=O)c1ccccc1OCCCCCCCCOC(=O)Cc1ccc([N+](C)(C)C)cc1 [Compound 1076]
5. C[N+](C)(C)c1ccc(CC(=O)OCCCCn2ccc3cc(OCc4ccccc4)ccc32)cc1 [Compound 745]
6. C[N+](C)(C)c1ccc(CC(=O)OCCCCCCCCOc2ccccc2C=CC(=O)c2ccccc2)cc1 [Compound 1086]

[98, 96.7, 95.2, 74, 85.4, 81]

List inhibition at 200 µM for every entry below, keeping the order given.
1. C[N+](C)(C)c1ccc(CC(=O)OCCCCCCCCOc2ccccc2C(=O)Nc2ccccc2)cc1 [Compound 1074]
2. C[N+](C)(C)c1ccc(CC(=O)OCCCCCCCCOc2ccc(Oc3ccccc3)cc2)cc1 [Compound 1090]

[91, 96]

====

Biological target: bacterial NAD synthetase enzyme (Bacillus subtilis, UniProt P08164)
Assay: biochemical
Assay type: biochemical
Conditions: compound at 0.2 mM (Table 312A)
Provide the recorded % Inhibition for the entries that follow.
Give bare numbers, in %.

                         chemical_structure  measure_unit  value
0  Fc1cc(F)c2[nH]c(CCCC[n+]3cccc4ccccc43)cc2c1             %  19.02
1  c1ccc(-c2ccc3[nH]c(CCCCCCCC[n+]4ccccc4)cc3c2)cc1             %  30.77
2  Fc1cc(F)c2[nH]c(CCCCC[n+]3cccc4ccccc43)cc2c1             %   8.77
3  O=[N+]([O-])c1ccc2[nH]c(CCCCCC[n+]3cccc4ccccc43)cc2c1             %  11.80
4  COC(=O)c1ccc[n+](CCCCCCCCCn2ccc3cc([N+](=O)[O-])ccc32)c1             %  78.85

List % Inhibition for every entry below, keeping the order given.
1. COc1ccc2[nH]c(CCCCCCC[n+]3cccc4ccccc43)cc2c1
2. CC(=O)c1ccc2[nH]c(CCCCOC(=O)c3ccc(N(C)C)cc3)cc2c1

1. 39.95
2. 17.36

====

Tested on: Staphylococcus epidermitis
Experiment: Bacterial growth inhibition screen in LB media (absorbance 595 nm), percent inhibition
Conditions: S. epidermitis; concentration screened 10 uM
# cutoff 6% applies to % Inhibition; >= gives 1.0, < gives 0.0

Below are worked cases with known answers.
>>> df
                                   compound  class_assignment
0  O=C(OCCCCCCCc1cc2cc(Oc3ccccc3)ccc2[nH]1)c1cccnc1               1.0
1  COC(=O)c1ccc2c(ccn2CCCCCCCCC[n+]2ccccc2)c1               1.0
2  O=C(c1ccccc1)c1ccc2[nH]c(CCCCC[n+]3cccc4ccccc43)cc2c1               1.0
3  c1ccc(-c2ccc3[nH]c(CCC[n+]4ccc5ccccc5c4)cc3c2)cc1               0.0
4  FC(F)(F)c1ccc2[nH]c(CCCCCCC[n+]3ccccc3)cc2c1               0.0
5         Fc1ccc2[nH]c(CCC[n+]3ccccc3)cc2c1               1.0
6  O=[N+]([O-])c1cc([N+](=O)[O-])c2[nH]c(CCCCC[n+]3cccc4ccccc43)cc2c1               0.0
7  FC(F)(F)c1ccc2cc(CCCCCCC[n+]3cccc4ccccc43)[nH]c2c1               0.0

Now take the following compound into account.
Check if % Inhibition >= 6% (inclusive). Item: `O=C(OCCCCCCCCc1cc2cc(C(=O)c3ccccc3)ccc2[nH]1)c1cccnc1`
1.0

====

Tested on: Staphylococcus epidermitis
Experiment: Bacterial growth inhibition screen in LB media (absorbance 595 nm), percent inhibition
Conditions: S. epidermitis; concentration screened 10 uM
# cutoff 5% applies to % Inhibition; >= gives 1 (yes), < gives 0 (no)

Below are worked cases with known answers.
>>> print(df.to_string())
                         chemical_structure  class_assignment
0  COC(=O)c1ccc2[nH]c(CCCCCCCC[n+]3cccc4ccccc43)cc2c1           1 (yes)
1  O=[N+]([O-])c1ccc2[nH]c(CCCCCC[n+]3ccc4ccccc4c3)cc2c1            0 (no)
2       COc1ccc2[nH]c(CCCC[n+]3ccccc3)cc2c1            0 (no)
3  c1ccc(-c2ccc3[nH]c(CCCCC[n+]4cccc5ccccc54)cc3c2)cc1           1 (yes)
4  FC(F)(F)c1ccc2[nH]c(CCCCCC[n+]3cccc4ccccc43)cc2c1           1 (yes)

Check if % Inhibition >= 5% (inclusive). Item: `c1ccc(-c2ccc3[nH]c(CCCCCCCC[n+]4ccc5ccccc5c4)cc3c2)cc1`
1 (yes)

Check if % Inhibition >= 5% (inclusive). Item: `CN(C)c1cccc(C(=O)OCCCCCCCCCn2ccc3cc([N+](=O)[O-])ccc32)c1`
1 (yes)

====

Target: bacterial NAD synthetase enzyme (Bacillus subtilis, UniProt P08164)
Sequence (P08164 2-272 limits assumed): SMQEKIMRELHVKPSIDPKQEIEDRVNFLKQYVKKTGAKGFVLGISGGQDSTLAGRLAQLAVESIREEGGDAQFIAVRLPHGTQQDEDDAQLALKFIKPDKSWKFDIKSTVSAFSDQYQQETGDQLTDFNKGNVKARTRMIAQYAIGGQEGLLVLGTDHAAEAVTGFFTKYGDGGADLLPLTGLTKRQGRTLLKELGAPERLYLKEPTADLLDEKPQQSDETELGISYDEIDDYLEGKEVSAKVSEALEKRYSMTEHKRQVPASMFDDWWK
Assay: biochemical
Type: biochemical
Settings: compound at 0.1 mM (Table 314)
Provide the recorded % Inhibition for the entries that follow.

Example cases with answers are listed next.
In [3]: df
Out[3]:
                         chemical_structure  experimental_readout  value
0  FC(F)(F)c1ccc2[nH]c(CCCCC[n+]3ccccc3)cc2c1          % Inhibition  8.31%
1  O=C(O)/C=C/c1cn(CCCC[n+]2cccc3ccccc32)c2ccccc12          % Inhibition  9.24%

List % Inhibition for every entry below, keeping the order given.
1. CC(C)c1ccc2[nH]c(CCCCC[n+]3ccccc3)cc2c1
2. c1ccc(C(c2ccccc2)(c2ccccc2)c2ccc3[nH]c(CCC[n+]4cccc5ccccc54)cc3c2)cc1
3. c1ccc(-c2ccc3[nH]c(CCCCCCC[n+]4ccccc4)cc3c2)cc1
4. CC(=O)c1ccc2[nH]c(CCCCC[n+]3ccccc3)cc2c1
5. Fc1ccc2[nH]c(CCCC[n+]3cccc4ccccc43)cc2c1
6. COC(=O)c1cc2cc(OCc3ccccc3)ccc2n1CCCCCCCCOC(=O)Cc1ccc(N(C)C)cc1

44.72%
8.55%
47.85%
21.10%
2.94%
8.48%

List % Inhibition for every entry below, keeping the order given.
1. CC(=O)c1ccc2[nH]c(CCCCCCCOC(=O)C(c3ccccc3)c3ccccc3)cc2c1
2. c1ccc2[nH]c(CCCCCCCC[n+]3cccc4ccccc43)cc2c1
3. COC(=O)c1ccc[n+](CCCCCCCn2ccc3cc([N+](=O)[O-])ccc32)c1
4. c1ccc(-c2ccc3[nH]c(CCCC[n+]4ccccc4)cc3c2)cc1
5. FC(F)(F)c1ccc2[nH]c(CCCC[n+]3ccccc3)cc2c1

1. 4.65%
2. 20.85%
3. 62.22%
4. 53.22%
5. 16.08%

// provenance: patent US6727237B2
